tested on: Saccharomyces cerevisiae; experiment: protein stability index of tFT-peptide fusion (C-terminal peptide) (PSI (0-1 scale)); higher = more stable (slower turnover); details: genetic background: das1 deletion; temperature: 30 C;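 note: PSI is a weighted mean of sequencing reads over stability bins, variants kept only with over 10 reads, mCherry proximal and sfGFP distal, peptide attached via GGGS linker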
The sequences listed here are annotated with their protein stability index.

{"sequence chain": "RLGIRCLYLRFI", "protein stability index": 0.482}
{"sequence chain": "VVRLRVWRLLKV", "protein stability index": 0.253}
{"sequence chain": "CFVFYALFGFAV", "protein stability index": 0.302}
{"sequence chain": "WRAFVFYHHFLD", "protein stability index": 0.655}
{"sequence chain": "LLVFWRLWWSLS", "protein stability index": 0.251}
{"sequence chain": "FWYIRIRLAVVA", "protein stability index": 0.0867}
{"sequence chain": "FLSRHFLFLSFV", "protein stability index": 0.505}
{"sequence chain": "WACAWRGMVKVG", "protein stability index": 0.232}
{"sequence chain": "VVTLHISLFYPG", "protein stability index": 0.406}
{"sequence chain": "LFLVVVVRAGGF", "protein stability index": 0.214}
{"sequence chain": "FFFLILFPLSYS", "protein stability index": 0.376}
{"sequence chain": "ALWRAWLRLRIW", "protein stability index": 0.582}
{"sequence chain": "FGCCLYFCFWGL", "protein stability index": 0.386}
{"sequence chain": "PLLPCRPILFLL", "protein stability index": 0.558}
{"sequence chain": "SVFCSLFLFLFY", "protein stability index": 0.4}
{"sequence chain": "PYHAPRPPFSLF", "protein stability index": 0.667}
{"sequence chain": "SFCVLLQFCVLV", "protein stability index": 0.351}
{"sequence chain": "YSCFFFLFSFFF", "protein stability index": 0.429}
{"sequence chain": "IKSIKQNKIKTI", "protein stability index": 0.653}
{"sequence chain": "VFCMVLPFVLLT", "protein stability index": 0.194}
{"sequence chain": "FCRLCYLLLFCC", "protein stability index": 0.404}
{"sequence chain": "LVLGLYGVWLVV", "protein stability index": 0.254}
{"sequence chain": "LVCLVASCVRWL", "protein stability index": 0.359}
{"sequence chain": "QVGRPRVGFSRR", "protein stability index": 0.652}
{"sequence chain": "FKFGVFDFRFLC", "protein stability index": 0.623}
{"sequence chain": "VFWVLVSFLFYV", "protein stability index": 0.307}
{"sequence chain": "RARLRFASLRAF", "protein stability index": 0.64}
{"sequence chain": "CVLLRPGFLVLV", "protein stability index": 0.207}
{"sequence chain": "FASFLFFCYIIF", "protein stability index": 0.192}
{"sequence chain": "ISSYKFLRIVLV", "protein stability index": 0.335}
{"sequence chain": "VYVSRTRPFSLY", "protein stability index": 0.63}
{"sequence chain": "VCFLCIWLYSED", "protein stability index": 0.227}
{"sequence chain": "WVWCVCVVVWCG", "protein stability index": 0.153}
{"sequence chain": "RTSRPVRLFRIH", "protein stability index": 0.656}
{"sequence chain": "VFFIFFFAFLFF", "protein stability index": 0.335}
{"sequence chain": "RGGVCFVVWCGG", "protein stability index": 0.435}
{"sequence chain": "VSVFWVFLLVAG", "protein stability index": 0.245}
{"sequence chain": "LWWTRVILYGYI", "protein stability index": 0.456}
{"sequence chain": "LFHVWSLRFFWL", "protein stability index": 0.557}
{"sequence chain": "LVCLFFLSSLFF", "protein stability index": 0.495}
{"sequence chain": "LVSWAWIWIFVF", "protein stability index": 0.253}
{"sequence chain": "FLLLVVYVSLYS", "protein stability index": 0.183}
{"sequence chain": "VTLLCRFFMLVF", "protein stability index": 0.402}
{"sequence chain": "FLLLDFMLVSLV", "protein stability index": 0.404}
{"sequence chain": "FELVWLCIIGAL", "protein stability index": 0.331}
{"sequence chain": "TVLGRDFALSVC", "protein stability index": 0.361}
{"sequence chain": "SRPGRWRLYYVS", "protein stability index": 0.679}
{"sequence chain": "SWMSQFSILLTA", "protein stability index": 0.188}
{"sequence chain": "VMLIRVSRGIKC", "protein stability index": 0.293}
{"sequence chain": "SLVIVLPALIFL", "protein stability index": 0.393}
{"sequence chain": "LNALSHCRAICS", "protein stability index": 0.604}
{"sequence chain": "VFIPFGFCLCFV", "protein stability index": 0.317}
{"sequence chain": "SLSCYSFFVLAL", "protein stability index": 0.404}
{"sequence chain": "ARLTNYFVEWLS", "protein stability index": 0.657}
{"sequence chain": "KALFPGLLLCAF", "protein stability index": 0.239}
{"sequence chain": "LHFHIYLIISPF", "protein stability index": 0.2}
{"sequence chain": "SAWGQAFWCQMG", "protein stability index": 0.648}
{"sequence chain": "RSPVVVFAVLLF", "protein stability index": 0.341}
{"sequence chain": "VVRSIVVYTCVF", "protein stability index": 0.262}
{"sequence chain": "RALYLLALVGVS", "protein stability index": 0.223}
{"sequence chain": "RWELASKCRLCV", "protein stability index": 0.563}
{"sequence chain": "WFLLILFSAFAV", "protein stability index": 0.352}
{"sequence chain": "VRMMYSVQVWCG", "protein stability index": 0.0633}
{"sequence chain": "CLVKIVIFFLFS", "protein stability index": 0.217}
{"sequence chain": "VGVLWALIVGVR", "protein stability index": 0.191}
{"sequence chain": "FFFWLLCAGWLL", "protein stability index": 0.544}
{"sequence chain": "GGVVGGVGVYDG", "protein stability index": 0.635}
{"sequence chain": "WFVCSGVYGSVM", "protein stability index": 0.682}
{"sequence chain": "CLLVCCCFYRNV", "protein stability index": 0.409}
{"sequence chain": "LEPFTGYTVIVM", "protein stability index": 0.232}
{"sequence chain": "VSRAVCLWRRLL", "protein stability index": 0.618}
{"sequence chain": "VGAYSVVYVVFS", "protein stability index": 0.322}
{"sequence chain": "RLMVHQHTIPVR", "protein stability index": 0.307}
{"sequence chain": "QCKHIVRKIKLH", "protein stability index": 0.617}
{"sequence chain": "RLELTRIMIVAI", "protein stability index": 0.182}
{"sequence chain": "IWWFKELRVCRV", "protein stability index": 0.435}
{"sequence chain": "LGIPKLLCFVCT", "protein stability index": 0.304}
{"sequence chain": "VASYVCIGVVWV", "protein stability index": 0.301}
{"sequence chain": "VLPCSLVPLRLH", "protein stability index": 0.642}
{"sequence chain": "CVARWPRPAGSS", "protein stability index": 0.655}
{"sequence chain": "ASAYCCMITRLN", "protein stability index": 0.629}
{"sequence chain": "WLFTSVTVFTFL", "protein stability index": 0.221}
